test system: HEK-293T; test: Cytotoxicity against human 293T cells after 48 hrs by MTT assay; type: cell-based
pIC50: −log10 of the molar value.
// pIC50 lookup, one value per entry
quantity_name: pIC50

{"columns": ["substance_smiles", "test_value"],
 "data": [
  ["O=C(COc1cc(O)c2c(=O)cc(-c3ccccc3)oc2c1)OCc1cc(-c2ccc([N+](=O)[O-])cc2)n(-c2ccccc2)n1", 3.72],
  ["COc1ccc(-c2cc(COC(=O)COc3cc(O)c4c(=O)cc(-c5ccccc5)oc4c3)nn2-c2ccc(C)cc2)cc1", 3.71],
  ["Cc1ccc(-n2nc(COC(=O)COc3cc(O)c4c(=O)cc(-c5ccccc5)oc4c3)cc2-c2ccc([N+](=O)[O-])cc2)cc1", 3.67],
  ["Cc1ccc(-n2nc(COC(=O)COc3cc(O)c4c(=O)cc(-c5ccccc5)oc4c3)cc2-c2ccc(Br)cc2)cc1", 3.56]
]}

====

// log10(IC50) lookup, one value per entry
Target: Prostaglandin G/H synthase 2 (Homo sapiens, UniProt P35354)
Sequence (P35354 whole entry): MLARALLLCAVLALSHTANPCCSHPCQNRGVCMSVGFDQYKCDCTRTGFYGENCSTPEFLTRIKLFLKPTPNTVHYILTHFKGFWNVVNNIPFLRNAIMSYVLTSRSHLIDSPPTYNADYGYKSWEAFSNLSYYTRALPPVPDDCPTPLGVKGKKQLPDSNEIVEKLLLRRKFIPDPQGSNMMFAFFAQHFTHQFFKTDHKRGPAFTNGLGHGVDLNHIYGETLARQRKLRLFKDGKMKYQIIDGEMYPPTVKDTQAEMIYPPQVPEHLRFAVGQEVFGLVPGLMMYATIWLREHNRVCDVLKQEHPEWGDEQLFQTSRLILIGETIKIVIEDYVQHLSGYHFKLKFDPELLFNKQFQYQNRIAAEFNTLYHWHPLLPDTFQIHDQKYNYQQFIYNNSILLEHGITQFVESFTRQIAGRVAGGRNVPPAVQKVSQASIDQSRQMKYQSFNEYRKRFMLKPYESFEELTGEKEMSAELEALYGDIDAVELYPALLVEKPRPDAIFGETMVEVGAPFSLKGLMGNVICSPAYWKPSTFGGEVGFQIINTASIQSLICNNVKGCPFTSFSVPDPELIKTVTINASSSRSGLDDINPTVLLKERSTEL
quantity_name: log10(IC50) (log10 of the value in nM)

{"columns": ["substance_smiles", "log10(IC50)"],
 "data": [
  ["COc1ccc(-c2cc(COC(=O)COc3cc(O)c4c(=O)cc(-c5ccccc5)oc4c3)nn2-c2ccccc2)cc1", 2.73],
  ["O=C(COc1cc(O)c2c(=O)cc(-c3ccccc3)oc2c1)OCc1cc(-c2cccc(Cl)c2)n(-c2ccccc2)n1", 3.65],
  ["O=C(COc1cc(O)c2c(=O)cc(-c3ccccc3)oc2c1)OCc1cc(-c2ccc(C(F)(F)F)cc2)n(-c2ccccc2)n1", 3.64],
  ["COc1ccc(-c2cc(COC(=O)COc3cc(O)c4c(=O)cc(-c5ccccc5)oc4c3)nn2-c2ccc(Cl)cc2)cc1", 2.54],
  ["Cc1ccc(-c2cc(COC(=O)COc3cc(O)c4c(=O)cc(-c5ccccc5)oc4c3)nn2-c2ccc(Cl)cc2)cc1", 3.16],
  ["Cc1ccc(-n2nc(COC(=O)COc3cc(O)c4c(=O)cc(-c5ccccc5)oc4c3)cc2-c2cccc(C)c2)cc1", 3.08],
  ["Cc1ccc(-n2nc(COC(=O)COc3cc(O)c4c(=O)cc(-c5ccccc5)oc4c3)cc2-c2ccc(C(F)(F)F)cc2)cc1", 3.70]
]}

====

tested on: MCF7; assay: Antiproliferative activity against human MCF7 cells after 48 hrs by MTT assay; format: functional, cell-based; conditions: MCF7, 48 h
# Met = IC50 below 20 µM (exclusive); Not met = IC50 at/above 20 µM

{"columns": ["molecule", "assigned_category"],
 "data": [
  ["Cc1cccc(-c2cc(COC(=O)COc3cc(O)c4c(=O)cc(-c5ccccc5)oc4c3)nn2-c2ccccc2)c1", "Met"],
  ["Cc1ccc(-c2cc(C(F)(F)F)nn2-c2ccc(S(N)(=O)=O)cc2)cc1 [CELECOXIB]", "Not met"],
  ["O=C(COc1cc(O)c2c(=O)cc(-c3ccccc3)oc2c1)OCc1cc(-c2cccc(Cl)c2)n(-c2ccccc2)n1", "Not met"],
  ["O=C(COc1cc(O)c2c(=O)cc(-c3ccccc3)oc2c1)OCc1cc(-c2cccc(Cl)c2)n(-c2ccc(Cl)cc2)n1", "Met"],
  ["Cc1ccc(-c2cc(COC(=O)COc3cc(O)c4c(=O)cc(-c5ccccc5)oc4c3)nn2-c2ccc(C)cc2)cc1", "Met"],
  ["O=C(COc1cc(O)c2c(=O)cc(-c3ccccc3)oc2c1)OCc1cc(-c2cccc([N+](=O)[O-])c2)n(-c2ccccc2)n1", "Met"],
  ["Cc1ccc(-n2nc(COC(=O)COc3cc(O)c4c(=O)cc(-c5ccccc5)oc4c3)cc2-c2ccc(Cl)c(Cl)c2)cc1", "Not met"],
  ["COc1ccc(-c2cc(COC(=O)COc3cc(O)c4c(=O)cc(-c5ccccc5)oc4c3)nn2-c2ccccc2)cc1", "Met"],
  ["O=C(COc1cc(O)c2c(=O)cc(-c3ccccc3)oc2c1)OCc1cc(-c2ccc([N+](=O)[O-])cc2)n(-c2ccccc2)n1", "Not met"],
  ["COc1cccc(-c2cc(COC(=O)COc3cc(O)c4c(=O)cc(-c5ccccc5)oc4c3)nn2-c2ccccc2)c1", "Met"],
  ["Cc1ccc(-c2cc(COC(=O)COc3cc(O)c4c(=O)cc(-c5ccccc5)oc4c3)nn2-c2ccc(Cl)cc2)cc1", "Met"],
  ["O=C(COc1cc(O)c2c(=O)cc(-c3ccccc3)oc2c1)OCc1cc(-c2cccc(F)c2)n(-c2ccccc2)n1", "Met"],
  ["Cc1ccc(-n2nc(COC(=O)COc3cc(O)c4c(=O)cc(-c5ccccc5)oc4c3)cc2-c2cccc(Cl)c2)cc1", "Not met"],
  ["O=c1cc(-c2ccccc2)oc2cc(O)cc(O)c12 [CHRYSIN]", "Not met"],
  ["O=C(COc1cc(O)c2c(=O)cc(-c3ccccc3)oc2c1)OCc1cc(-c2ccccc2)n(-c2ccccc2)n1", "Met"],
  ["Cc1ccc(-n2nc(COC(=O)COc3cc(O)c4c(=O)cc(-c5ccccc5)oc4c3)cc2-c2ccc(C(F)(F)F)cc2)cc1", "Met"]
]}

====

system: HeLa; assay: Antiproliferative activity against human HeLa cells after 48 hrs by MTT assay; type: functional, cell-based
// IC50 lookup, one value per entry
quantity_name: IC50

{"columns": ["substance_smiles", "quantity_name", "test_value"],
 "data": [
  ["COc1ccc(-c2cc(COC(=O)COc3cc(O)c4c(=O)cc(-c5ccccc5)oc4c3)nn2-c2ccc(Cl)cc2)cc1", "IC50", "5.65 µM"],
  ["Cc1ccc(-n2nc(COC(=O)COc3cc(O)c4c(=O)cc(-c5ccccc5)oc4c3)cc2-c2ccc(Cl)cc2)cc1", "IC50", "2.67 µM"],
  ["O=C(COc1cc(O)c2c(=O)cc(-c3ccccc3)oc2c1)OCc1cc(-c2cccc(Cl)c2)n(-c2ccccc2)n1", "IC50", "1.75 µM"],
  ["Cc1ccc(-c2cc(C(F)(F)F)nn2-c2ccc(S(N)(=O)=O)cc2)cc1", "IC50", "15.7 µM"],
  ["O=C(COc1cc(O)c2c(=O)cc(-c3ccccc3)oc2c1)OCc1cc(-c2cccc(C(F)(F)F)c2)n(-c2ccccc2)n1", "IC50", "4.33 µM"],
  ["O=C(COc1cc(O)c2c(=O)cc(-c3ccccc3)oc2c1)OCc1cc(-c2ccc(Cl)c(Cl)c2)n(-c2ccccc2)n1", "IC50", "6.28 µM"],
  ["O=C(COc1cc(O)c2c(=O)cc(-c3ccccc3)oc2c1)OCc1cc(-c2cccc(Cl)c2)n(-c2ccc(Cl)cc2)n1", "IC50", "> 100 µM"],
  ["Cc1ccc(-n2nc(COC(=O)COc3cc(O)c4c(=O)cc(-c5ccccc5)oc4c3)cc2-c2cccc(Cl)c2)cc1", "IC50", "25.5 µM"],
  ["Cc1ccc(-c2cc(COC(=O)COc3cc(O)c4c(=O)cc(-c5ccccc5)oc4c3)nn2-c2ccccc2)cc1", "IC50", "4.78 µM"]
]}

====

species on record: Homo sapiens; assay: Selectivity index, ratio of IC50 for COX1 (unknown origin) to ratio of IC50 for COX2 (unknown origin)
// Ratio IC50 lookup, one value per entry
quantity_name: Ratio IC50

{"columns": ["substance_smiles", "test_value"],
 "data": [
  ["O=C(COc1cc(O)c2c(=O)cc(-c3ccccc3)oc2c1)OCc1cc(-c2cccc(Cl)c2)n(-c2ccc(Cl)cc2)n1", 87.3],
  ["Cc1ccc(-n2nc(COC(=O)COc3cc(O)c4c(=O)cc(-c5ccccc5)oc4c3)cc2-c2ccc(C(F)(F)F)cc2)cc1", 5.92],
  ["COc1ccc(-c2cc(COC(=O)COc3cc(O)c4c(=O)cc(-c5ccccc5)oc4c3)nn2-c2ccc(C)cc2)cc1", 206],
  ["COc1ccc(-c2cc(COC(=O)COc3cc(O)c4c(=O)cc(-c5ccccc5)oc4c3)nn2-c2ccc(Cl)cc2)cc1", 132],
  ["O=C(COc1cc(O)c2c(=O)cc(-c3ccccc3)oc2c1)OCc1cc(-c2ccc(C(F)(F)F)cc2)n(-c2ccccc2)n1", 7.61],
  ["COc1ccc(-c2cc(COC(=O)COc3cc(O)c4c(=O)cc(-c5ccccc5)oc4c3)nn2-c2ccccc2)cc1", 75.9],
  ["O=C(COc1cc(O)c2c(=O)cc(-c3ccccc3)oc2c1)OCc1cc(-c2cccc(Cl)c2)n(-c2ccccc2)n1", 10.1],
  ["Cc1ccc(-n2nc(COC(=O)COc3cc(O)c4c(=O)cc(-c5ccccc5)oc4c3)cc2-c2ccc(Br)cc2)cc1", 36.5],
  ["Cc1ccc(-c2cc(COC(=O)COc3cc(O)c4c(=O)cc(-c5ccccc5)oc4c3)nn2-c2ccc(C)cc2)cc1", 96],
  ["COc1cccc(-c2cc(COC(=O)COc3cc(O)c4c(=O)cc(-c5ccccc5)oc4c3)nn2-c2ccccc2)c1", 21],
  ["O=C(COc1cc(O)c2c(=O)cc(-c3ccccc3)oc2c1)OCc1cc(-c2ccc(Cl)c(Cl)c2)n(-c2ccc(Cl)cc2)n1", 3.86],
  ["O=C(COc1cc(O)c2c(=O)cc(-c3ccccc3)oc2c1)OCc1cc(-c2ccc(Br)cc2)n(-c2ccccc2)n1", 20.4]
]}
